We begin with a simple list: items and their reported TGI.
System: KM12 colon
Assay: NCI tumour cell line growth inhibition, 48 h

MOLECULE | SYSTEM NAME | TGI
CCO/C(O)=C(/C(=N)N1CCOCC1)C(=O)Nc1ccc(Cl)cc1 | KM12 colon | > 100 µM
Cn1c(=O)c2c(nc3n(Cc4ccccc4)c(=O)c(Br)cn23)n(C)c1=O | KM12 colon | > 100 µM
CCOC(=O)CCc1cccc2c1oc1c(CCNC(=O)OCC3c4ccccc4-c4ccccc43)cccc12 | KM12 colon | > 100 µM
COC(c1ccccc1)C(c1ccccc1)N1CCOCC1 (stereo unspecified) | KM12 colon | > 100 µM
Cc1nc2ccccc2nc1NNc1ccccc1 | KM12 colon | 63.4 µM
COc1cccc2[nH]c3c4c(c5c(c3c12)C(=O)N(CN1CCN(C)CC1)C5=O)CCC4 | KM12 colon | 49.7 µM
O=c1[nH]cnc2c1sc(=S)n2-c1ccccc1 | KM12 colon | > 100 µM
CC[N+](CC)=c1cc2oc3cc(N(C)C)ccc3nc-2cc1C | KM12 colon | 14.7 µM
COC(=O)[C@]12CC[C@H]3CN(C(=O)OCc4ccccc4)[C@H]([C@H]31)[C@H](c1ccccc1)N2 | KM12 colon | > 100 µM
Nc1nccc2c1ncn2[C@H]1C[C@H](O)[C@@H](CO)O1 | KM12 colon | > 100 µM
NC(CCC(=O)Nc1ccc(O)cc1)C(=O)O (stereo unspecified) | KM12 colon | > 100 µM
Cc1cc(OCC(=O)O)c(Cl)cc1Cl | KM12 colon | > 100 µM
O=C(Cc1cc[n+]([O-])cc1)C(=O)Nc1cc(Cl)c(Cl)cc1Cl | KM12 colon | > 100 µM
COc1ccc(/C(C)=C(\c2ccc(Cl)cc2)c2ccc(OCCN3CCCCC3)cc2)cc1 | KM12 colon | 16 µM
CCCCCCCCCCCCc1ccsc1-c1ccc(-c2ccc(-c3sc(-c4cc(CCCCCCCCCCCC)c(-c5ccc(-c6ccc(-c7sccc7CCCCCCCCCCCC)s6)s5)s4)cc3CCCCCCCCCCCC)s2)s1 | KM12 colon | > 100 µM
COC1=C(C)C(=O)C2=C(C1=O)[C@@H]1[C@@H]3Cc4c(OC(=O)CO)c(C)c(OC)c(O)c4[C@H](CNC(=O)C(C)=O)N3[C@@H](C#N)[C@H](C2)N1C | KM12 colon | 2.05 µM
CCOC(=O)C1=C(C)NC(=O)NC1c1ccc(N(CCCl)CCCl)cc1Cl (stereo unspecified) | KM12 colon | 33.9 µM
NNC1=Nc2ccc(Cl)cc2C(=S)N2CSCC12 (stereo unspecified) | KM12 colon | > 100 µM
CCC(=O)Nc1ccc(NCC(=O)Nc2ccc(Cl)cc2)cc1 | KM12 colon | 33 µM
COc1cc(C(=O)O)ccc1OS(=O)(=O)O | KM12 colon | > 100 µM
CNC(=O)c1ccccc1Nc1cc(Nc2ccc(N3CCOCC3)cc2OC)ncc1C(F)(F)F | KM12 colon | 11.6 µM

* * *

We begin with a simple list: items and their reported TGI.
Tested on: SNB-19 CNS
Experiment: NCI tumour cell line growth inhibition, 48 h

MOLECULE | DISPLAY UNIT | OPERATOR SYMBOL | TGI
O=S1c2ccccc2N=C(c2cccc3ccccc23)CC1c1cccc2ccccc12 (configuration not stated) | µM | = | 66.7
CCCCCC(=O)Nc1n[nH]nc1C#N | µM | > | 100
CC(C)(C)COC1C2(OCCO2)C2CCC1(C)C2(C)C (configuration not stated) | µM | = | 41.7
C1C[OH+]CC[OH+]CC[OH+]CC[OH+]CC[OH+]CC[OH+]1.[Cl-].[V] | µM | > | 100
O=S(=O)(c1ccc(Cl)cc1)c1ccccc1C1=NCCN1 | µM | > | 100
CCCCCCCCCCC(=O)CC(=O)c1c(O)cccc1O | µM | > | 100
COc1cc(C(=O)O)ccc1OS(=O)(=O)O | µM | > | 100
CCCCC(CCCCCC(CCCC)C1NC(C)Cc2cc(OC)c(OC)cc21)C1NC(C)Cc2cc(OC)c(OC)cc21 (configuration not stated) | µM | = | 3.15
COC1=C(OC)C(=O)C(CCCCCCCCCC[P+](c2ccccc2)(c2ccccc2)c2ccccc2)=C(C)C1=O | µM | = | 1.3
Cc1ccc(S(=O)(=O)c2ccccc2)cc1 | µM | > | 100
CCC[CH2][Sn]1([CH2]CCC)[O]CC(CN2CCCCC2)[O]1 (configuration not stated) | µM | = | 0.948
O=C(Nc1ccc(Cl)cc1)c1cc2c(cc1Cl)SC(NNCCO)=NS2(=O)=O | µM | > | 100
COc1cc(C(c2c(O)c3ccccc3oc2=O)c2c(O)c3ccccc3oc2=O)ccc1O | µM | = | 92
CN(C)CCCNc1ccnc2cccc([N+](=O)[O-])c12 | µM | = | 56.6
COc1ccc(C(C)c2cc3c(cc2O)OCO3)cc1 (configuration not stated) | µM | = | 66.6
CCOC(=O)CCc1cccc2c1oc1c(CCNC(=O)OCC3c4ccccc4-c4ccccc43)cccc12 | µM | = | 70.6
O=C(CCc1nnc2s/c(=C\c3ccccc3[N+](=O)[O-])c(=O)n12)Nc1cc(Cl)c(Cl)cc1Cl | µM | = | 74.3
CN(CCCN=C=S)CCCN1c2ccccc2CCc2ccccc21 | µM | = | 3.14
O=C(/C=C/c1ccc2ccccc2c1)NCc1ccc(C(=O)NCc2ccccc2)cc1 | µM | > | 100
c1csc(-c2cc(-c3ccsc3)c(-c3ccsc3)s2)c1 | µM | > | 100
COc1ccc2[nH]c3c(C)c4ccncc4c(C)c3c2c1 | µM | = | 7.83
Cc1ccccc1OC(C)C(=O)NN1C(=O)CC(=O)NC1=S (configuration not stated) | µM | > | 100

Data credit: PubChem BioAssay (NCI)
